This listing pairs compounds with measured viability at 28.5 h, 10 µM.
Experiment: in vitro
Conditions: human, hela cells, % viability
Parameter measured: viability at 28.5 h, 10 µM (%)

INSERT INTO results (compound, parameter_measured, quantitative_readout) VALUES
  ('COCCN1C(=O)CC2(C1=O)C(=O)N(CC(=O)c1ccccc1)c1ccccc12 (centres unmarked)', 'viability at 28.5 h, 10 µM', 99),
  ('Cn1c(=O)[nH]c(=O)c2c1nc(N/N=C/c1cc(Br)ccc1O)n2CCO', 'viability at 28.5 h, 10 µM', 97.8),
  ('NC(=O)COc1ccc(C2CC(=O)Nc3c(-c4cccc(F)c4)csc32)cc1 (centres unmarked)', 'viability at 28.5 h, 10 µM', 99.6),
  ('Cc1c(Cl)cccc1S(=O)(=O)NC1=NC(=O)C(CC(=O)Nc2ccccc2Cl)S1 (centres unmarked)', 'viability at 28.5 h, 10 µM', 107),
  ('Cc1ccc(C(=O)NCCc2nnc3ccc(Cl)nn23)cc1', 'viability at 28.5 h, 10 µM', 89.5),
  ('Cn1c2c(c(=O)[nH]c1=O)C1(O)C(=O)c3ccccc3C1(O)N2 (centres unmarked)', 'viability at 28.5 h, 10 µM', 105),
  ('O=C(Nc1nc2n(n1)C(c1ccc(F)cc1)CC(c1ccccc1)N2)c1cccnc1 (centres unmarked)', 'viability at 28.5 h, 10 µM', 88.9),
  ('CC(=O)Nc1ccc(S(=O)(=O)Nc2cccc(-c3cn4cccnc4n3)c2)cc1', 'viability at 28.5 h, 10 µM', 74.9),
  ('O=C(CCCn1cccn1)N1CCCN(Cc2ccc(F)cc2)CC1', 'viability at 28.5 h, 10 µM', 99.7),
  ('CC(=O)c1nnnn1C(C)(C)Cc1ccccc1', 'viability at 28.5 h, 10 µM', 91.3),
  ('O=C(CCCc1nc(-c2ccccc2Cl)no1)NCc1cccnc1', 'viability at 28.5 h, 10 µM', 77.8),
  ('CC(Cn1nnc2ccccc21)C(=O)O (centres unmarked)', 'viability at 28.5 h, 10 µM', 117),
  ('FC(F)(F)c1cccnc1OCCOc1ccc(Cl)cc1', 'viability at 28.5 h, 10 µM', 90.5),
  ('COc1ncc(-c2cnc(N)c(-c3ccc(C=O)cc3)n2)c(OC)n1', 'viability at 28.5 h, 10 µM', 94.1),
  ('Cc1nc(Oc2ccccc2)c2c3c(sc2n1)CCCC3', 'viability at 28.5 h, 10 µM', 101),
  ('OCCN1CCN(c2nc(NCC3CCCO3)c3ccccc3n2)CC1 (centres unmarked) [CBK266659C]', 'viability at 28.5 h, 10 µM', 99.1),
  ('O=C(O)CN1C(=O)S/C(=C\c2ccc([N+](=O)[O-])o2)C1=O', 'viability at 28.5 h, 10 µM', 97.7),
  ('O=C(Cc1ccc(F)cc1)N1CCC(c2cc3cnccc3[nH]2)CC1', 'viability at 28.5 h, 10 µM', 85.7),
  ('Brc1ccc(CN2CCN(Cc3c[nH]c4ccccc34)CC2)cc1', 'viability at 28.5 h, 10 µM', 85.4),
  ('O=C1Nc2ccc(-c3ccc(Cl)cc3)cc2C(=O)N2CCN(C(=O)c3cccnc3)C[C@H]12', 'viability at 28.5 h, 10 µM', 107);
